# Subject of test: T1, His-Taf14FL (S. cerevisiae, UniProt P35189 1-244)
# T1 construct: Taf14, S. cerevisiae, aa 1–244; Labelled on the His tag with the His-Tag Labeling Kit RED-tris-NTA (2nd Generation) for MST; source: E. coli Rosetta-2 (DE3) pLysS, purified (Ni-NTA, SEC)
# T1 sequence (looked up): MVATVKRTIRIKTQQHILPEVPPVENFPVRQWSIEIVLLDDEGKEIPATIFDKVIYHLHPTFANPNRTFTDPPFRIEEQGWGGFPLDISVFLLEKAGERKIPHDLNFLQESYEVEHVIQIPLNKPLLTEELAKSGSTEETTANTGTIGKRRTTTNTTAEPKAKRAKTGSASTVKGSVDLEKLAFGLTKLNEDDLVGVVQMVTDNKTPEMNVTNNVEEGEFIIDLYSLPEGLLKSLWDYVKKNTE
# Measurement protocol: MST; His-tagged Taf14 protein labeled with RED-tris-NTA kept at 20 nM, unlabeled peptide added stepwise; 20 mM Tris-HCl pH 7.5, 150 mM NaCl, 0–0.2 mM TCEP; Monolith NT.115; n = 2 or 3
# Conditions: both partners purified
Recorded metric: Kd (nM)
Please reply with the bare figure in nM and do not write the unit itself.

// recorded Kd for SRSFMVKIRTK (peptide, UniProt P23255 1392-1402, looked up, Taf2, subunit of yeast TFIID, C-terminal hxhKh motif-containing tail, aa 1392–1402; also called Taf2 peptide; C-terminal tail of Taf2; source: synthetic peptide (Synpeptide)) [Taf2CT peptide (aa 1392–1402 of Taf2)] : 700

Just for reference, paper PMC9177701 is where these values come from.
